Biological target: MOZ-KAT6A (Homo sapiens, UniProt Q92794, A567V)
Construct: encoding amino acid residues 507 to 778 (Uniprot Q92794-1) of human KAT6A; made in house; host or cells: E. coli BL21 DE3
Sequence (Q92794 507-778 A567V limits assumed): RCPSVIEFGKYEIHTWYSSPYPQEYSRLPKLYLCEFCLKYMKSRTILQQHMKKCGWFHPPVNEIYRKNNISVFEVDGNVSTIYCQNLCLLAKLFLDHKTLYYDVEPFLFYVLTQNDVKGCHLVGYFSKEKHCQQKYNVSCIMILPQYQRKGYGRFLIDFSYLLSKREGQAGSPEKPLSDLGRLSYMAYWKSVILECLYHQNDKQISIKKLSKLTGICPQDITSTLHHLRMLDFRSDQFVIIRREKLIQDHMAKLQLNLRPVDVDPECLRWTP
Assay: Acetyltransferase biochemical assay (AlphaScreen), KAT6A
Conditions: Table 2 (MOZ-KAT6A); 10 μM Acetyl coenzyme A, histone H3.1, 5 nM enzyme
Readout kind: pIC50
One number for each entry, as −log10 of the molar value.

Compound	Readout kind	Readout number
O=C(NCCc1ccccc1)C1=Nc2ccc(I)cc2S(=O)(=O)N1	pIC50	5.66
COC(=O)C(CNC(=O)C1=Nc2ccccc2S(=O)(=O)N1)c1ccccc1 (stereo not shown)	pIC50	5.34
Cn1cc(-c2ccc3c(c2)S(=O)(=O)NC(C(=O)NCC(c2ccccc2)c2ccccc2)=N3)cn1	pIC50	5.51

The compound identified as Cc1ccc2c(c1)S(=O)(=O)NC(C(=O)NCC(c1ccccc1)c1ccccc1)=N2 registered its pIC50 at 5.86
